Collected IC50 values appear next to each entry.
target: cAMP and cAMP-inhibited cGMP 3',5'-cyclic phosphodiesterase 10A (Homo sapiens, UniProt Q9Y233); assay: Enzyme Inhibition Assay: To check the inhibition profile, 5 μL of serial diluted compounds were incubated with 5 μL of diluted PDE10 enzyme (BPS Bioscience, San Diego, Calif.) or tissue homogenate in a 384-well polystyrene assay plate (Corning, Corning, N.Y.) for 30 min at room temperature. After incubation, 10 μL of diluted fluorescein labeled cAMP or cGMP substrate were added and incubated for 60 min at room temperature. The reaction was stopped by adding 60 μL of diluted binding reagents and plates were read on an Envision (Perkin Elmer, Waltham, Mass.) for time resolved fluorescence resonance energy transfer. The data were analyzed with GraphPad Prism (La Jolla, Calif.).
Sequence (Q9Y233 whole entry): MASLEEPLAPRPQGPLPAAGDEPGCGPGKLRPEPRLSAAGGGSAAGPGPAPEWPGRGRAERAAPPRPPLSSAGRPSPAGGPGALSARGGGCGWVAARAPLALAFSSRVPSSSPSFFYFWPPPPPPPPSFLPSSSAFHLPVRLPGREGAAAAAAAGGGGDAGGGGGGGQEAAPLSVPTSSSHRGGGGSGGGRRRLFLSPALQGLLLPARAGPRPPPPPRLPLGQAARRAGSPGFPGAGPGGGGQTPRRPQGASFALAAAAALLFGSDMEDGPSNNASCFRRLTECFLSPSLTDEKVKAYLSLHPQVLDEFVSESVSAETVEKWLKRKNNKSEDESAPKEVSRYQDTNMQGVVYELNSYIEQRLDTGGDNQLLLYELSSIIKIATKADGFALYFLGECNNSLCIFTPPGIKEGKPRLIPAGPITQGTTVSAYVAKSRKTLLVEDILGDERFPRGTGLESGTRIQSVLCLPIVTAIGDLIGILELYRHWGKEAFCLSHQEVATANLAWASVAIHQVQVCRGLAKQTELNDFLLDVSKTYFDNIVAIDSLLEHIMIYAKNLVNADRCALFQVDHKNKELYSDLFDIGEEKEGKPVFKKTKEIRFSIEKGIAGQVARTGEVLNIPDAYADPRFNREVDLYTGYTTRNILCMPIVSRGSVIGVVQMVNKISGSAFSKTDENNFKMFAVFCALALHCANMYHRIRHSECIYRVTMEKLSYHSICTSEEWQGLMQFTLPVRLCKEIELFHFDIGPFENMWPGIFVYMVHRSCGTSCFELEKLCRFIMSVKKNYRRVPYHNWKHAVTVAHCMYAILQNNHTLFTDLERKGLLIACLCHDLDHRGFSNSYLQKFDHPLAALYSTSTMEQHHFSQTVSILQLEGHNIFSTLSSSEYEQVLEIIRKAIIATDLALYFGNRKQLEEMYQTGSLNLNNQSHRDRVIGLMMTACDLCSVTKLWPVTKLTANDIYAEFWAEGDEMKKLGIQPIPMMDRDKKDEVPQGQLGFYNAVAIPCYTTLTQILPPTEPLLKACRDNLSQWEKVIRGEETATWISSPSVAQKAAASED
Quick note: give the figure in nM, leave out the unit.

Value lookup for IC50; key = Cn1c(C(=O)c2ccc(Oc3ncccc3C3(F)CCOCC3)cc2)nc2ccccc21
0.749

Value lookup for IC50; key = COc1ccc(Cn2c(Nc3ccc(Oc4ncccc4C4CCOCC4)cc3)nc3ccccc32)cc1
1.7

Value lookup for IC50; key = O=C(c1ccc(Oc2ncccc2[C@@H]2CC[C@](O)(C(F)(F)F)C2)cc1)c1nc2ccccc2[nH]1
1.59

Value lookup for IC50; key = CC(=O)N1CC=C(c2cncnc2Oc2ccc(C(=O)c3nc4ccccc4[nH]3)cc2)CC1
1.56
